Target: T1, human CCR8 (human, UniProt P51685 1-355)
T1 construct: the cells are named under assay; also called hCCR8
Experiment: flow cytometry, hCCR8 transfected CHOK1 cells
# key: entry, value: MFI fold change to isotype ctrl
recorded.endpoint: MFI fold change to isotype ctrl (fold)

>>> reported_value("3-29 (antibody, V domains shown) VH: QVHLVETGGGLVRPGNSLKLSCVTSGFTLSNYRMHWLRQPPGKRLEWIAVIKVKSDNYGANYAESVKGRFTISRDDAKSSVYLQMNRLREEDTATYYCSRPDGFSPFVYWGQGTLVTVSA VL: DIKMTQSPSSMYASLGERVTITCKASQDINSYLSWFQQKPGKSPKTLIYRANRLVDGVPSRFSGSGSGQDYFLTISSLEYEDMGIYYCLQYGEFPPTFGAGTKLELK")
6.26
>>> reported_value("3-23 (antibody, V domains shown) VH: QVQLVETGGGLVRPGNSLKLSCVISGFTFSNYRIHWLRQPPGKRLEWIAVITVKSDNYEANYAESVKGRFTISRDDSKSSVYLQMNRLREEDTATYYCSRPDGFSPFVYWGQGTLVTVSA VL: DIKMTQSPSSMYASLGERVTITCKASQDINNYLSWFQQKPGKSPKTLIYRADRLVDGVPSRFSGSGSGQDYSLTISSLDYEDMGIYYCLQYAEFPPTFGAGTKLELK")
12.7
>>> reported_value("3-47 (antibody, V domains shown) VH: QVQLQQPGAELVKPGASVKMSCKASGYTFTSYNMHWVKQTPGQGLEWIGAISPGNGDTSYNQKFKGKATLTADKSSSTAYMQLSSLTSEDSAVYYCARGKNGNVPMDYWGQGTSVTVSS VL: DIVLTQSPASLAVSLGQRATISCRASESVEYYGTSLMKWYQQKPGQPPKLLIYAASIVESGVPARFSGSGSGTDFSLNIHPVEEDDIAMYFCQQSRKVPWTFGGGTKLEIK")
6.81
>>> reported_value("3-43 (antibody, V domains shown) VH: QVQLQQPGAELVKPGASVKMSCKATGYTFTGYNMHWVKQTPGQGLEWIGAISPGKGDTSYNLKFKGKATLTTDKSSSTAYMQLSSLTSADSAVYYCARSGGTPFAYWGQGTLVTVSA VL: DVVMTQTPLSLPVSLGDQASISCRSSQSLVHSNGDTYLYWYLQKPGQSPKLLIYKVSNRFSGVPDRFSGSGSGTDFTLKINRVEAEDLGVYFCSQSTHVPYTFGGGTKLEIK")
8.37
>>> reported_value("3-44 (antibody, V domains shown) VH: QVQLKESGPGLVAPSQSLSITCTVSGFSLTDYGVSWIRQPPGKGPEWLGVIWGGGNTYYNSVLKSRLSISNDNSKSQVFLRMNSLQTADTAIYYCARPRRDYYALDYWGQGTSVTVAS VL: DVVMTQTPLSLPVSLGDQASISCRSSQSLVYTNGNTFLHWYLQKPGQSPKLLIYKVSNRFSGVPDRFSGSGSGTDFTLKISRVEAEDLGVYFCSQSTHVPPTFGGGTKLEIK")
6.36
>>> reported_value("3-31 (antibody, V domains shown) VH: DVQLQESGPGLVKPSQSLSLTCTVTGYSITSNYAWNWIRQFPGNKLEWMVYITYSGSTRFNPSLKSRISITRDTSKNQFFLQLNSVTTEDTATYYCARGENLFAYWGQGTLVIVSA VL: DVVMTQTPLSLPVSLGDQASISCRSSQSLVHNNGNTYLHWYLQKPGQSPKLLIYKVSNRFSGVPDRFSGSGSGTDFTLKINRLEAEDLGVYFCSQSTYVPLTFGAGTKLELK")
5.35
